Cited source: paper PMC6427912

test system: HEK293 cells; test: HEK293 cell growth inhibition assay; assay type: cell-based, human; conditions: HEK293 cell growth inhibition ED50; 24 hr incubation; value in parentheses
reported_endpoint: HEK 293 (µM)
# value in µM; strip the unit string

Give HEK 293 (HEK293 cells) of the following compound: CC(C)CCCC(C)CCOc1cc[n+](CC(P(=O)([O-])O)P(=O)(O)O)cc1 (stereo not drawn)
1000

Give HEK 293 (HEK293 cells) of the following compound: CCCCCCCCCCCCCc1ccc[n+](CC(P(=O)([O-])O)P(=O)(O)O)c1 (stereo not drawn)
48

Give HEK 293 (HEK293 cells) of the following compound: CC(C)CCCC(C)CCOc1cc(NCC(P(=O)(O)O)P(=O)(O)O)ccn1 (stereo not drawn)
1200

Give HEK 293 (HEK293 cells) of the following compound: CC(C)CCCC(C)CCNc1ccc[n+](CC(P(=O)([O-])O)P(=O)(O)O)c1 (stereo not drawn)
440

Give HEK 293 (HEK293 cells) of the following compound: CC(C)CCCC(C)CCCn1cc[n+](CC(P(=O)([O-])O)P(=O)(O)O)c1 (stereo not drawn)
440

Give HEK 293 (HEK293 cells) of the following compound: CC(C)CCCC(C)CCn1cc[n+](CC(P(=O)([O-])O)P(=O)(O)O)c1 (stereo not drawn)
420

====

tested on: HEK293 cells; test: HEK293 cell growth inhibition assay; assay type: cell-based, human; settings: HEK293 cell growth inhibition ED50; 24 hr incubation
Binary call on HEK 293: label 1 from 200 µg/mL upward, label 0 beneath that.

Test whether the compound CC(C)CCCC(C)CCCn1cc[n+](CC(P(=O)([O-])O)P(=O)(O)O)c1 (centres unmarked) records HEK 293 of 200 µg/mL or higher.
label 0

Test whether the compound CC(C)CCCC(C)CCOc1ccc[n+](CC(P(=O)([O-])O)P(=O)(O)O)c1 (centres unmarked) records HEK 293 of 200 µg/mL or higher.
label 1

Test whether the compound CC(C)CCCC(C)CCSc1ccc[n+](CC(P(=O)([O-])O)P(=O)(O)O)c1 (centres unmarked) records HEK 293 of 200 µg/mL or higher.
label 1

Test whether the compound CCCCCCCCCCCc1ccc[n+](CC(P(=O)([O-])O)P(=O)(O)O)c1 (centres unmarked) records HEK 293 of 200 µg/mL or higher.
label 0

====

tested on: HEK293 cells; assay: HEK293 cell growth inhibition assay; type: cell-based, human; details: HEK293 cell growth inhibition ED50; 24 hr incubation
reported_endpoint: HEK 293 (µg/mL)
# value in µg/mL; strip the unit string

Give HEK 293 (HEK293 cells) of the following molecule: CC(C)CCCC(C)CCSc1cc[n+](CC(P(=O)([O-])O)P(=O)(O)O)cc1 (centres unmarked) [Compound 85]
440

Give HEK 293 (HEK293 cells) of the following molecule: CC(C)CCCC(C)CCNc1ccc[n+](CC(P(=O)([O-])O)P(=O)(O)O)c1 (centres unmarked) [Compound 78]
186

Give HEK 293 (HEK293 cells) of the following molecule: CC(C)CCCC(C)CCOc1ccnc(NC(P(=O)(O)O)P(=O)(O)O)c1 (centres unmarked) [Compound 95]
630

Give HEK 293 (HEK293 cells) of the following molecule: CCCCCCCCCCCCCc1ccc[n+](CC(P(=O)([O-])O)P(=O)(O)O)c1 (centres unmarked) [Compound 83]
22

Give HEK 293 (HEK293 cells) of the following molecule: CC(C)CCCC(C)CCOc1cc[n+](CC(P(=O)([O-])O)P(=O)(O)O)cc1 (centres unmarked) [Compound 84]
420

Give HEK 293 (HEK293 cells) of the following molecule: CC(C)CCCC(C)CCn1cc[n+](CC(P(=O)([O-])O)P(=O)(O)O)c1 (centres unmarked) [Compound 82]
170

Give HEK 293 (HEK293 cells) of the following molecule: CC(C)CCCC(C)CCCc1cc[n+](CC(P(=O)([O-])O)P(=O)(O)O)cc1 (centres unmarked) [Compound 80]
295

Give HEK 293 (HEK293 cells) of the following molecule: CC(C)CCCC(C)CCOc1cc(NCC(P(=O)(O)O)P(=O)(O)O)ccn1 (centres unmarked) [Compound 87]
530
